Data provenance: patent US20110098217A1

Hi there, I'd appreciate the recorded IC50 for every entry that follows.
Target: T1, human glucagon receptor (human, UniProt P47871 26-477)
T1 construct: whole, on cells; cAMP assay: transfected HEK293 cells
T1 sequence (P47871 26-477): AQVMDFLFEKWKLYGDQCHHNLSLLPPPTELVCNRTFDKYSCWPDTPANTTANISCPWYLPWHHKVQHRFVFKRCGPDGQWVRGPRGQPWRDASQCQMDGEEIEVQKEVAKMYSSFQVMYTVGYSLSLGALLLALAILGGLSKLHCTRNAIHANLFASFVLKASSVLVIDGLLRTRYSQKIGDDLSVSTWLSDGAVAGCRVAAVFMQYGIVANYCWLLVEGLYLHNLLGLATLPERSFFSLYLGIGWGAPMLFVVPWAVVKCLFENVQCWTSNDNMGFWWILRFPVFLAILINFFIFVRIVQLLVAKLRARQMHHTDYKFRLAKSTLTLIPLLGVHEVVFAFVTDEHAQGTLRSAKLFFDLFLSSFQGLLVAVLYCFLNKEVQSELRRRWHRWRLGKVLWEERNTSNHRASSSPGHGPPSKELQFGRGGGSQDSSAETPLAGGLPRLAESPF
Assay: SPA competition vs 125I-glucagon, receptor membranes
Square brackets hold non-standard residues; d marks the D form. Ends that are not written are not given here. Abu(4-SO3H) = N[C@@H](CCS(=O)(=O)O)C(=O)O
Just so you know, I need the unit written after the number.

Check out these entries, answers already filled in.
• FTSDYSKYLDSRRAQDFVQWLMNT-NH2 (also called peptide no; 15) [Glucagon(aa6-29)-NH2] = 1670 nM
• FTSEYSKYLDSRRAQDFVQWLMNT-NH2 (also called [E^9]Glucagon(aa6-29)-NH2; peptide no; 11) [[Glu^9]Glucagon(aa6-29)-NH2] = 36.4 nM
• FTSKYSKYLDSRRAQDFVQWLMNT-NH2 (also called [K^9]Glucagon(aa6-29)-NH2; peptide no; 16) [[Lys^9]Glucagon(aa6-29)-NH2] = 3240 nM

Challenge: Quick one: IC50 for FTS[Abu(4-SO3H)]YSKYLDSRRAQDFVQWLMNT-NH2 (also called [hCys(SO3)9]Glucagon(aa6-29)-NH2) [[hCys^9(SO3H)]Glucagon(aa6-29)-NH2] ?
Response given: 59.1 nM
